tested on: AD38 cells; assay: Viability of AD38 cells (Promega CellTiter-Glo) at the end of compound treatment; assay type: cell-based; conditions: 10 μM compound, 6 days, luminescence normalized against DMSO control wells (controls being 100%)
Label scheme for AD38 Viability Normalized Result (CPAM/DMSO %) at 10 μM: lower than 80% is condition not met, 80% and above is condition met.

A selection of reference data follows.
Compound | Label
CCOc1ccccc1CCNC(=O)c1ccc2c(c1)NC(=O)c1ccccc1S2 | condition met
Cc1c(C(=O)NCCc2cnco2)ccc2c1NC(=O)c1ccccc1S2 | condition met
O=C(Nc1cccc(-c2ccc(O)cc2)c1)c1ccc2c(c1)NC(=O)c1cc(F)ccc1S2 | condition met
O=C(Nc1cccc(-c2cnco2)c1)c1ccc2c(c1)NC(=O)c1cc(F)ccc1S2 | condition met
O=C(NCc1cncnc1)c1ccc2c(c1)NC(=O)c1cc(F)ccc1S2 | condition met

// next entry
Exam item: decide whether the reported AD38 Viability Normalized Result (CPAM/DMSO %) at 10 μM for `O=C(NCCc1ccc(N2CCCCC2)cc1)c1ccc2c(c1)NC(=O)c1ccccc1S2` is at least 80%.
condition met

* * *

test system: HBV viral production in AD38 cells; assay: Viral load production in AD38 cells by quantitative PCR of the HBV core sequence in supernatant; format: cell-based; settings: Hepatitis B virus, 144 h; 10 μM compound, 6 days at 37° C., viral load in supernatant compared against DMSO control wells; read-out: AD38 Viral Load (CpAM/DMSO %) at 10 μM
Label scheme for activity at 10 µM: lower than 50% is No, 50% and above is Yes.

A selection of reference data follows.
Compound | Target Entity | Label
O=C(NCCc1cccc(OC(F)(F)F)c1)c1ccc2c(c1)NC(=O)c1ccccc1S2 | HBV viral production in AD38 cells | No
O=C(Nc1nncs1)c1ccc2c(c1)NC(=O)c1cc(F)ccc1S2 | HBV viral production in AD38 cells | Yes
O=C(NCCC1CCCCC1)c1ccc2c(c1)NC(=O)c1cc(Cl)ccc1S2 | HBV viral production in AD38 cells | No
CCOC(=O)C(NC(=O)c1ccc2c(c1)NC(=O)c1cc(F)ccc1S2)c1ccncc1 (centres unmarked) | HBV viral production in AD38 cells | No
O=C(NCc1cnco1)c1ccc2c(c1)NC(=O)c1c(F)cccc1S2 | HBV viral production in AD38 cells | No

Exam item: decide whether the reported activity at 10 µM for `O=C(NCc1cncnc1)c1ccc2c(c1)NC(=O)c1ccccc1N2Cc1ccccc1` is at least 50%.
No

Exam item: decide whether the reported activity at 10 µM for O=C(NCCc1cncnc1)c1ccc2c(c1)NC(=O)c1ccccc1[S+]2[O-] (centres unmarked) is at least 50%.
No

Exam item: decide whether the reported activity at 10 µM for `O=C(Nc1ncc(-c2ccccc2)o1)c1ccc2c(c1)NC(=O)c1cc(F)ccc1S2` is at least 50%.
Yes

* * *

tested on: AD38 cells; test: Viability of AD38 cells (Promega CellTiter-Glo) at the end of compound treatment; type: cell-based; settings: 10 μM compound, 6 days, luminescence normalized against DMSO control wells (controls being 100%)
Reported values of AD38 Viability Normalized Result (CPAM/DMSO %) at 10 μM for individual entries
# unit: % | format: bare number

Please review the entries below; each comes with its answer.
Compound | Result Units | Reported Measurement
O=C(Nc1cncc(Cl)c1)c1ccc2c(c1)NC(=O)c1cc(F)ccc1S2 [Compound 1345] | % | 93
O=C(NCCN1CCOCC1)c1ccc2c(c1)NC(=O)c1ccccc1S2 [Compound 1175] | % | 123

Give AD38 Viability Normalized Result (CPAM/DMSO %) at 10 μM for the following compound: COc1ccccc1CNC(=O)c1ccc2c(c1)NC(=O)c1ccccc1S2 [Compound 1159]
92

Give AD38 Viability Normalized Result (CPAM/DMSO %) at 10 μM for the following compound: O=C(NCCc1cccnc1)c1ccc2c(c1)NC(=O)c1ccc(F)cc1S2 [Compound 1377]
65

Give AD38 Viability Normalized Result (CPAM/DMSO %) at 10 μM for the following compound: CN1c2ccc(C(=O)NCc3cnco3)cc2NC(=O)c2ccccc21 [Compound 1547]
90

* * *

tested on: AD38 cells; assay: Viability of AD38 cells (Promega CellTiter-Glo) at the end of compound treatment; type: cell-based; details: 10 μM compound, 6 days, luminescence normalized against DMSO control wells (controls being 100%)
Observed Property: AD38 Viability Normalized Result (CPAM/DMSO %) at 10 μM
# unit: % | format: bare number

Please review the entries below; each comes with its answer.
Molecule | Target Entity | Result Units | Reported Measurement
COc1ccc2c(c1)C(=O)Nc1cc(C(=O)NCCC3CCCCC3)ccc1S2 | AD38 cells | % | 102
O=C(NCCc1cccc(O)c1)c1ccc2c(c1)NC(=O)c1ccccc1S2 | AD38 cells | % | 95
CN1c2ccc(C(=O)NCCc3cccnc3)cc2NC(=O)c2ccccc21 | AD38 cells | % | 109
O=C(NCc1ncccn1)c1ccc2c(c1)NC(=O)c1ccccc1S2 | AD38 cells | % | 92
O=C(Nc1nnco1)c1ccc2c(c1)NC(=O)c1cc(F)ccc1S2 | AD38 cells | % | 98
O=C(NCc1cncs1)c1ccc2c(c1)NC(=O)c1ccccc1[SH]2O (stereo not shown) [Compound 1535] | AD38 cells | % | 85

Give AD38 Viability Normalized Result (CPAM/DMSO %) at 10 μM for the following molecule: `O=C(NCCC1CCCCC1)c1ccc2c(c1)NC(=O)c1ccccc1S2(=O)=O`
106

Give AD38 Viability Normalized Result (CPAM/DMSO %) at 10 μM for the following molecule: `O=C(Nc1cccc(-c2ccccn2)c1)c1ccc2c(c1)NC(=O)c1cc(F)ccc1S2`
51

Give AD38 Viability Normalized Result (CPAM/DMSO %) at 10 μM for the following molecule: O=C(NCCC1CCCO1)c1ccc2c(c1)NC(=O)c1ccccc1S2(=O)=O (stereo not shown)
111

Give AD38 Viability Normalized Result (CPAM/DMSO %) at 10 μM for the following molecule: `CCN1c2ccc(C(=O)NCCc3cccnc3)cc2NC(=O)c2ccccc21`
70

Give AD38 Viability Normalized Result (CPAM/DMSO %) at 10 μM for the following molecule: `O=C(NCc1cncs1)c1ccc2c(c1)NC(=O)c1cccc(F)c1S2`
103

Give AD38 Viability Normalized Result (CPAM/DMSO %) at 10 μM for the following molecule: `O=C(Nc1cccc(F)c1)c1ccc2c(c1)NC(=O)c1cc(F)ccc1S2`
95

Give AD38 Viability Normalized Result (CPAM/DMSO %) at 10 μM for the following molecule: `O=C(NCCc1ccc2ccccc2c1)c1ccc2c(c1)NC(=O)c1ccccc1S2`
119

Give AD38 Viability Normalized Result (CPAM/DMSO %) at 10 μM for the following molecule: `O=C(NCc1cccnc1)c1ccc2c(c1)NC(=O)c1c(F)cccc1S2`
79

* * *

Reported values of activity at 10 µM for individual entries
tested on: HBV viral production in AD38 cells; assay: Viral load production in AD38 cells by quantitative PCR of the HBV core sequence in supernatant; format: cell-based; conditions: Hepatitis B virus, 144 h; 10 μM compound, 6 days at 37° C., viral load in supernatant compared against DMSO control wells; read-out: AD38 Viral Load (CpAM/DMSO %) at 10 μM
# unit: % | format: bare number

Please review the entries below; each comes with its answer.
Molecule | activity at 10 µM [%]
O=C(NCc1cccnc1)c1ccc2c(c1)NC(=O)c1cccc(F)c1S2 | 2
COc1ccc(CCNC(=O)c2ccc3c(c2)NC(=O)c2ccccc2S3)cc1 | 1
O=C(NCC1CCCO1)c1ccc2c(c1)NC(=O)c1ccccc1S2 (stereo not drawn) | 50
O=C(NCc1ncccn1)c1ccc2c(c1)NC(=O)c1ccccc1S2 | 78
CN1C(=O)c2ccccc2Sc2ccc(C(=O)NCc3cncs3)cc21 | 46

Give activity at 10 µM for the following molecule: `O=C(NCc1ccccc1N1CCCC1)c1ccc2c(c1)NC(=O)c1ccccc1S2`
26

Give activity at 10 µM for the following molecule: `CC(=O)Nc1ccccc1NC(=O)c1ccc2c(c1)NC(=O)c1ccccc1S2`
91

Give activity at 10 µM for the following molecule: `COC(C)(C)CCNC(=O)c1ccc2c(c1)NC(=O)c1ccccc1S2`
26

Give activity at 10 µM for the following molecule: `COc1ncc(CNC(=O)c2ccc3c(c2)NC(=O)c2ccccc2S3)s1`
0

* * *

system: HBV viral production in AD38 cells; assay: Viral load production in AD38 cells by quantitative PCR of the HBV core sequence in supernatant; assay type: cell-based; conditions: Hepatitis B virus, 144 h; 10 μM compound, 6 days at 37° C., viral load in supernatant compared against DMSO control wells; read-out: AD38 Viral Load (CpAM/DMSO %) at 10 μM
Observed Property: activity at 10 µM (%)
# unit: % | format: bare number

Please review the entries below; each comes with its answer.
Molecule | Result Units | activity at 10 µM
O=C(NCCc1cnco1)c1ccc2c(c1)NC(=O)c1ccccc1[S+]2[O-] (stereo not drawn) | % | 30
O=C(NCc1cnco1)c1ccc2c(c1)NC(=O)c1cc(F)ccc1S2 | % | 8
O=C(NCCc1cnco1)c1ccc2c(c1)NC(=O)c1ccccc1S2(=O)=O | % | 5
O=C(Nc1ccccc1F)c1ccc2c(c1)NC(=O)c1cc(F)ccc1S2 | % | 28
O=C(NCCc1cncs1)c1ccc2c(c1)NC(=O)c1ccc(F)cc1S2 | % | 15
Nc1ncc(CNC(=O)c2ccc3c(c2)NC(=O)c2ccccc2S3)s1 | % | 0

Give activity at 10 µM for the following molecule: `O=C(NCc1cncs1)c1ccc2c(c1)NC(=O)c1ccccc1N2`
38

Give activity at 10 µM for the following molecule: `O=C(NCc1cccnc1)c1ccc2c(c1)NC(=O)c1cc(F)ccc1S2`
1

Give activity at 10 µM for the following molecule: `O=C(NCCc1cccc(F)c1)c1ccc2c(c1)NC(=O)c1ccccc1S2`
2

Give activity at 10 µM for the following molecule: `CCc1ncsc1CNC(=O)c1ccc2c(c1)NC(=O)c1ccccc1S2`
9

Give activity at 10 µM for the following molecule: `O=C(NCc1cccc(C(F)(F)F)c1)c1ccc2c(c1)NC(=O)c1ccccc1S2`
10

Give activity at 10 µM for the following molecule: O=C(NCCc1cncs1)c1ccc2c(c1)NC(=O)c1ccccc1[S+]2[O-] (stereo not drawn)
19

Give activity at 10 µM for the following molecule: `O=C(NCCc1ccccc1)Nc1ccc2c(c1)NC(=O)c1ccccc1S2`
3

Give activity at 10 µM for the following molecule: CN(C)S(=O)(=O)c1ccc(CCNC(=O)c2ccc3c(c2)NC(=O)c2ccccc2[S+]3[O-])cc1 (stereo not drawn)
53
